Each item that follows carries a reported pIC50.
measured.on: PKCα (Homo sapiens, UniProt P17252)
Construct: His6; purchased Millipore; host or cells: baculovirus in Sf21 cells
assay.summary: In vitro enzyme assay (time-resolved fluorescence kinase assay), PKCα, 100 μM ATP
Format: biochemical
measurement.parameters: 100 μM ATP; read-out: PKCα enzyme IC50
pIC50: −log10 of the molar value.

> print(dat)
                                   molecule        result
1  CC1C(=O)NN=C2COc3ccc(NC4(C(C)C)CNC4)cc3N21 (stereo not shown)  5.00 to 6.00
2  Cc1cc2c(cc1NC1CNC1)N1C(=NNC(=O)[C@H]1C)CO2 (single isomer, unassigned)  5.00 to 6.00
3  CC1C(=O)NN=C2COc3cc(-c4ccc5ccccc5c4)c(NC4CNC4)cc3N21 (racemic)  5.00 to 6.00

Next molecule, pIC50 to be filled in.
Query string: Report measured pIC50; entry is CC1C(=O)NN=C2COc3cc(-c4ccccc4)c(N(C)C4(C)CN(C5CCOCC5)C4)cc3N21 (stereo not shown)
Result string: 6.00 to 6.60

====

measured.on: PKCα (Homo sapiens)
Construct: His6; purchased Millipore; host or cells: baculovirus in Sf21 cells
assay.summary: In vitro enzyme assay (time-resolved fluorescence kinase assay), PKCα, 100 μM ATP
Type: biochemical
measurement.parameters: 100 μM ATP; read-out: PKCα enzyme IC50
reported.endpoint: IC50

Query string: Report measured IC50; entry is C[C@@H]1C(=O)NN=C2COc3cc(-c4ccccc4F)c(N(C)C4(C)CN(C(=O)CCN(C)C)C4)cc3N21
Result string: 250 to 1000 nM

Query string: Report measured IC50; entry is CC(C)c1cc2c(cc1[C@@H](C)C1(C)CN(CCO)C1)N1C(=NNC(=O)[C@H]1C)CO2
Result string: 250 to 1000 nM

Query string: Report measured IC50; entry is CC1C(=O)NN=C2COc3cc(C4CC4)c(NC4CNC4)cc3N21 (racemic)
Result string: 1000 to 10000 nM

Query string: Report measured IC50; entry is C[C@@H]1C(=O)NN=C2COc3cc(-c4c(F)cccc4N4CCNCC4)ccc3N21
Result string: 1000 to 10000 nM

Query string: Report measured IC50; entry is C[C@@H]1C(=O)NN=C2COc3cc(-c4ccccc4F)c([C@H]4CCNC4)cc3N21
Result string: 1000 to 10000 nM

Query string: Report measured IC50; entry is C[C@@H]1C(=O)NN=C2COc3cc(-c4ccccc4F)c([C@@H]4CCNC4)cc3N21
Result string: 1000 to 10000 nM

Query string: Report measured IC50; entry is C[C@@H]1C(=O)NN=C2COc3cc(-c4ccccc4F)c([C@@H](C)C4(C)CN(CCO)C4)cc3N21
Result string: 250 to 1000 nM

Query string: Report measured IC50; entry is CC1C(=O)NN=C2COc3cc(C(F)(F)F)c(C4CCNCC4)cc3N21 (centres unmarked)
Result string: 1000 to 10000 nM

====

measured.on: PKCθ (Homo sapiens, UniProt Q04759)
Construct: His6
Sequence (Q04759 whole entry): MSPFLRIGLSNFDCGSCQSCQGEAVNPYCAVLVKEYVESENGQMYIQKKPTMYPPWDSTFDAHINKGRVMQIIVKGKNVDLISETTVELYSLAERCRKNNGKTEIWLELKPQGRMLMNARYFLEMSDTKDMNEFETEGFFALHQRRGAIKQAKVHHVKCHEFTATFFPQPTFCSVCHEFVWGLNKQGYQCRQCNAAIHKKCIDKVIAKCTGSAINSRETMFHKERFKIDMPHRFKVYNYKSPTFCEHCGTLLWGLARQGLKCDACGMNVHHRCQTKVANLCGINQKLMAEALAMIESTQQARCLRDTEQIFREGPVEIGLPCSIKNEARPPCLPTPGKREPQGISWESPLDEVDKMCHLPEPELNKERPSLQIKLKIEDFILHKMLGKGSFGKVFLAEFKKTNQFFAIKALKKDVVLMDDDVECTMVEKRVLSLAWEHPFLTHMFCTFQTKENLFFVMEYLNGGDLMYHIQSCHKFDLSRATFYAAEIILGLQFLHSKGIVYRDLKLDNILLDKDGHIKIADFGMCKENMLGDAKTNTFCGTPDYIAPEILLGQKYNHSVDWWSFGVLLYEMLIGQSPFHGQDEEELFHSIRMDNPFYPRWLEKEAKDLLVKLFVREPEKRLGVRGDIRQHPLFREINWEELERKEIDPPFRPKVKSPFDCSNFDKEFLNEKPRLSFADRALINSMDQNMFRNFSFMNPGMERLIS
assay.summary: In vitro enzyme assay (time-resolved fluorescence kinase assay), PKCθ, 100 μM ATP
Each item that follows carries a reported IC50.

> print(dat)
                                   compound  reported.endpoint          result
1  CC1C(=O)NN=C2COc3cc(-c4cccc(C#N)c4)c(NC4CNC4)cc3N21 (racemic) [Example 39]               IC50        < 250 nM
2  C[C@H](O)CN1CC(C)([C@H](C)c2cc3c(cc2-c2ccccc2F)OCC2=NNC(=O)[C@@H](C)N23)C1 [Example 139]               IC50        < 250 nM
3  C[C@@H]1C(=O)NN=C2COc3cc(-c4ccccc4F)c([C@@H](C)C4(C)CN(CCO)C4)cc3N21 [Example 141]               IC50        < 250 nM
4  CC1C(=O)NN=C2COc3cc(F)c(C4CCNCC4)cc3N21 (stereo not shown) [Example 72]               IC50  250 to 1000 nM
5  CC[C@@H]1CNCCN1c1cc2c(cc1-c1ccccc1F)OCC1=NNC(=O)[C@@H](C)N12 [Example 226]               IC50        < 250 nM
6  CC1C(=O)NN=C2COc3cc(F)c(OC4CNC4)cc3N21 (stereo not shown) [Example 123, trifluoroacetic acid]               IC50  250 to 1000 nM

Query string: Report measured IC50; entry is C[C@@H]1C(=O)NN=C2COc3cc(-c4ccco4)c([C@@H](C)C4(C)CN(C)C4)cc3N21 [Example 136]
Result string: < 250 nM

Query string: Report measured IC50; entry is CC1C(=O)NN=C2COc3cc(-c4ccc(Cl)cc4)c(NC4CNC4)cc3N21 (racemic) [Example 45]
Result string: < 250 nM

Query string: Report measured IC50; entry is CC1C(=O)NN=C2COc3cc(-c4cccc(C#N)c4)c(N(C)C4(C)CN(C)C4)cc3N21 (stereo not shown) [Example 170]
Result string: < 250 nM

====

measured.on: PKCα (Homo sapiens, UniProt P17252)
Construct: His6; purchased Millipore; host or cells: baculovirus in Sf21 cells
assay.summary: In vitro enzyme assay (time-resolved fluorescence kinase assay), PKCα, 100 μM ATP
Assay type: biochemical
measurement.parameters: 100 μM ATP; read-out: PKCα enzyme IC50
Counter-ions that a name gives are not always drawn.
Each item that follows carries a reported IC50.

Answered cases to consult:
> print(dat)
                                   molecule            result
1  CC1C(=O)NN=C2COc3c(cc(NC4CNC4)c(F)c3F)N21 (centres unmarked)  1000 to 10000 nM
2  CC(C)c1cc2c(cc1[C@@H]1CCNC[C@@H]1C)N1C(=NNC(=O)[C@H]1C)CO2  1000 to 10000 nM
3  CC1C(=O)NN=C2COc3cc4ccn(C5CCCNC5)c4cc3N21 (centres unmarked)  1000 to 10000 nM
4  CCc1cn(C2(C)CNC2)c2cc3c(cc12)OCC1=NNC(=O)[C@@H](C)N13 [Example 156, hydrochloride]  1000 to 10000 nM
5  CC1C(=O)NN=C2COc3cc(F)c(OC4(C)CNC4)cc3N21 (centres unmarked)  1000 to 10000 nM

Query string: Report measured IC50; entry is C[C@@H]1C(=O)NN=C2COc3cc(-c4ccccc4F)c([C@H]4CCCNCC4)cc3N21
Result string: 1000 to 10000 nM

Query string: Report measured IC50; entry is C[C@@H]1C(=O)NN=C2COc3cc(-c4cccc(CO)c4)c(N(C)C4(C)CN(C)C4)cc3N21
Result string: 250 to 1000 nM

Query string: Report measured IC50; entry is Cc1cn(C2(C)CNC2)c2cc3c(cc12)OCC1=NNC(=O)[C@@H](C)N13
Result string: 250 to 1000 nM

Query string: Report measured IC50; entry is CC(C)c1cc2c(cc1NC1CNC1)N1C(=NNC(=O)[C@H]1C)CO2 (single isomer, unassigned)
Result string: 1000 to 10000 nM

Query string: Report measured IC50; entry is C[C@@H]1C(=O)NN=C2COc3cc4c(cc3N21)N([C@@H]1CCNC1)CC4
Result string: 1000 to 10000 nM

Query string: Report measured IC50; entry is CC1C(=O)NN=C2COc3cc(-c4ccc(N(C)C)cc4)c(NC4CNC4)cc3N21 (racemic)
Result string: 1000 to 10000 nM

Query string: Report measured IC50; entry is Cc1ccccc1-c1cc2c(cc1N(C)C1(C)CN(C)C1)N1C(=NNC(=O)C1C)CO2 (centres unmarked)
Result string: < 250 nM

Query string: Report measured IC50; entry is C[C@H]1C(=O)NN=C2COc3cc(C(F)(F)F)c(NC4(C)CNC4)cc3N21
Result string: 250 to 1000 nM

Query string: Report measured IC50; entry is C[C@@H]1C(=O)NN=C2COc3cc(-c4ccccc4CO)c([C@@H](C)C4(C)CN(C)C4)cc3N21
Result string: 250 to 1000 nM

Query string: Report measured IC50; entry is CC1C(=O)NN=C2COc3cc(C4CC4)c(OC4CNC4)cc3N21 (centres unmarked)
Result string: 1000 to 10000 nM

Query string: Report measured IC50; entry is C[C@@H]1C(=O)NN=C2COc3cc4ccn(C5(C)CN(C)C5)c4cc3N21 [Example 160, hydrochloride]
Result string: 250 to 1000 nM

Query string: Report measured IC50; entry is C[C@@H]1C(=O)NN=C2COc3cc(C4CC4)c(NC4CNC4)cc3N21 (single isomer, unassigned)
Result string: 1000 to 10000 nM

All values here come from patent US9115151B2.
